Target Desc: human ErbB2, full length, on cells (B300.19/hErbB2 clone #44; MCF7; BT474; SKBR3) (human)
Readout Name: EC50 (ng/ml), inhibition of SKBR3 cell proliferation (ng/mL)
A number alone suffices; assume ng/mL.

monoclonal antibody 1.20 (antibody, V domains shown) VH: QLQLQESGPGLVKPSETLSLTCTVSGGSISSSNYYWGWIRQPPGKGLEWIGTIYYTGSTYYNPSLKSRVTISVDTSKNQFSLKLSSVTAADTAVYYCARHHWVFDYWGQGTLVTVSS VL: DIQMTQSPSSVSASVGDRVTITCRASQGISSWLAWYQQKPGKAPKLLIYAASSLQSGVPSRFSGSGSGTDFTLTISSLQPEDFATYYCQRTNSFPRTFGQGTKVEIK : 25.2
monoclonal antibody 1.100.1 (antibody, V domains shown) VH: QLQLQESGPGLVKPSETLSLTCTVSGGFISSSSYYWGWIRQPPGKGLEWIGTIYYSGTTYYNSSLKSRVTISVDTSQNQFSLKLSSVTAADTAVYYCARHHWVFDYWGQGTLVTVSS VL: EVVLTQSPDFQSVTPKEKITITCRASQIIGTSLHWYQKKPDQSPKLLIKYASQSFSGVPSRFSGSGSGTEFTLTINSLEAEDTATYYCHQSTNLPWTFGQGTKVEIK : 61.3
monoclonal antibody 1.39 (antibody, V domains shown) VH: QLQLQESGPGLVKPSETLSLTCTVSGGSISSSTYYWGWIRQPPGKGLEWIGTIYYSGSTYYNPSLKSRVTISVDTSKNQFSLKLNSVTAADTAVYYCARHHWVFDYWGQGTLVTVSS VL: EIVLTQSPDFLSVTPKEKVTITCRASQIIGSSLHWYQQKPDQSPKLLIKYASQSFSGVPSRFSGSGSGTDFTLTLNSLEAEDAATYYCHQSTILPWTFGQGTKVEIK : 68.9

INPUT: Which EC50 (ng/ml), inhibition of SKBR3 cell proliferation reading was recorded for the binder monoclonal antibody 1.14.1 (antibody, V domains shown) VH: QLQLQESGPGLVKPSETLSLTCTVSGDSISSFIYYWGWIRQPPGKGLEWIGTIYYSGSTYYNPSLKSRVTISVDTSKNQFSLKLRSVTAADTAVYYCARHHWVFDYWGQGTQVTVSS VL: DIVLTQFPDFQSVTPKEKVTITCRASQVIGSSLHWYQQKPDQSPKLLIKYASQSFSGVPSRFSGSGSGTDFTLTINSLEVEDAATYYCHQSTILPWTFGQGTKVEVK ?
OUTPUT: 35.7

INPUT: Which EC50 (ng/ml), inhibition of SKBR3 cell proliferation reading was recorded for the binder monoclonal antibody 1.18.1 (antibody, V domains shown) VH: QVQLVESGGGVVQPGRSLRLSCAASGFTFSSYGMHWVRQAPGKGLEWVAVIWYDRSNKYYADSVKGRFTISRDNSKNTLYLQMDSLRAEDTAVYYCAGGRSRGAFDYWGQGTLVTVSS VL: DIQMTQSPSSLSASVGDRVTITCRASQGIRNYLAWFQQKPGKAPKSLIYAASSLQSGVPSTFSGSGSGTHFTLTISSLQPEDFASYFCQQYEIYPLTFGGGTKVEIK ?
OUTPUT: 26.3

INPUT: Which EC50 (ng/ml), inhibition of SKBR3 cell proliferation reading was recorded for the binder monoclonal antibody 1.96 (antibody, V domains shown) VH: EVQLVESGGGLVQPGGSLRLSCAASGFTFSSYWMSWVRQAPGKGLEWVANIKQDGSEKYYVDSVKGRFTISRDNAKNSLYLQMNSLRAEDTAVYYCARWGVFGSGSYYIPFDYWGQGTLVTVSS VL: DIQMTQSPSSLSASVGDRVTITCRASHSITRYINWYQQKPGKAPNLLIYAASSLQSGVPSRFSGSGSGTDFTLTISSPQPEDFATYYCQQSYSSPPITFGQGTRLEIK ?
OUTPUT: 41.7
